Measured values drawn from patent US10519162B2 for this set.

TESTED_TARGET: human mGlu2 receptor (Homo sapiens, UniProt Q14416)
Construct: expressed in transfected cells; host or cells: CHO cells
Sequence (Q14416 19-872): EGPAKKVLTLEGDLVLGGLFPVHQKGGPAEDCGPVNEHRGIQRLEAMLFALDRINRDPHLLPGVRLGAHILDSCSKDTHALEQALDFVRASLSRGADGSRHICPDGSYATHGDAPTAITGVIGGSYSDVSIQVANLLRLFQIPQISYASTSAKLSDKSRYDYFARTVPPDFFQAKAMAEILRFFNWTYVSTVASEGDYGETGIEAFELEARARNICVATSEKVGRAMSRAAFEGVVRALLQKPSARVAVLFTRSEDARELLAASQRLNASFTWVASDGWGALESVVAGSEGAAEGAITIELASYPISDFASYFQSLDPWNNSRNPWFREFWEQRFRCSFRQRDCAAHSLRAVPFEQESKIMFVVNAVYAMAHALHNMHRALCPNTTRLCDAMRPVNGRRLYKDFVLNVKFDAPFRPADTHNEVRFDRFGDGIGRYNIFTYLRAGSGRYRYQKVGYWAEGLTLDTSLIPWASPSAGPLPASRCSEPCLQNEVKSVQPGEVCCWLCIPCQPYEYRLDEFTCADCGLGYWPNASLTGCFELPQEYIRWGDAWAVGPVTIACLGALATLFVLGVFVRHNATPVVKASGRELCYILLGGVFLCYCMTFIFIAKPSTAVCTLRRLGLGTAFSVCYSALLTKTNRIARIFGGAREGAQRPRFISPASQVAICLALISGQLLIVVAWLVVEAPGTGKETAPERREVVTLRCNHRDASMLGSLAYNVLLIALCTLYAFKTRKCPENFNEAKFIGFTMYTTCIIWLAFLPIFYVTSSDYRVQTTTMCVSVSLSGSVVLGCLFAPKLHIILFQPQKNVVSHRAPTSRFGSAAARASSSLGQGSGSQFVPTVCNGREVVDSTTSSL
ASSAY_NAME: [35S]GTPγS binding assay (mGluR2 negative allosteric modulation, glutamate ~EC80 60 μM)
Format: biochemical
REPORTED_CONDITIONS: membranes from CHO cells transfected with human mGlu2 receptor; glutamate ~EC80 (60 μM); pIC50 = −log IC50 (M); read-out: GTPγS-hmGluR2 anGT pIC50 (converted)
MEASURED_PARAMETER: IC50 (M)

Here's what some known entries look like.
Cc1cc(C(=O)Nc2cnn3c2C(=O)N(c2ccc(C(F)(F)F)c(C)c2)C[C@@H]3C)cc(C)n1 [Co. No. 113]: 2.04e-09
C[C@H]1CN(c2ccc(C(F)(F)F)cc2)C(=O)c2c(NC(=O)c3ccccn3)cnn21 [Co. No. 24]: 5.89e-09
COc1cc(N2C[C@H](C)n3ncc(NC(=O)c4cncc(F)c4)c3C2=O)ccc1C(F)(F)F [Co. No. 116]: 1e-08

P. COCc1cccc(C(=O)Nc2cnn3c2C(=O)N(c2ccc(C(F)(F)F)cc2)C[C@@H]3C)c1 [Co. No. 30]
Q. C[C@H]1CN(c2ccc(C(F)(F)F)cc2)C(=O)c2c(NC(=O)c3ncccc3F)cnn21 [Co. No. 67]
When their IC50 values are compared, which is larger, P or Q ? Give the chosen item's label as your response. Q

----------
MEASURED_PARAMETER: melting point (°C)

COc1cncc(C(=O)Nc2cnn3c2C(=O)N(c2ccc(C(F)(F)F)cc2)C[C@@H]3C)c1C [Co. No. 122]: 181.87
COc1cc(C(=O)Nc2cnn3c2C(=O)N(c2ccc(C(F)(F)F)cc2)C[C@@H]3C)ccc1F [Co. No. 51]: 140.98
C[C@H]1CN(c2ccc(C(F)(F)F)cc2)C(=O)c2c(NC(=O)c3nccs3)cnn21 [Co. No. 15]: 213.94
Cc1ccc(C(=O)Nc2cnn3c2C(=O)N(c2ccc(C(F)(F)F)cc2)C[C@@H]3C)cc1 [Co. No. 53]: 198.98

----------
Test system: Male Wiga Wistar rats
ASSAY_NAME: Reversal of LY-404039-induced decrease of palpebral opening in apomorphine-challenged rats (APO LY-404039)
Assay type: in vivo, rat
REPORTED_CONDITIONS: Rattus norvegicus, PO (oral route); apomorphine challenged rats
# maps each entry to its ED50
Note: unit mg/kg is implicit; provide only the numeric part.

For Cc1cc(C(=O)Nc2cnn3c2C(=O)N(c2ccc(C(F)(F)F)cc2)C[C@@H]3C)cc(C)n1 [Co. No. 93] the compound record lists ED50 as 0.79

For Cc1cc(C(=O)Nc2cnn3c2C(=O)N(c2ccc(C(F)(F)F)c(Cl)c2)C[C@@H]3C)ccn1 [Co. No. 12] the compound record lists ED50 as 0.42

For Cc1cc(N2C[C@H](C)n3ncc(NC(=O)c4ccc(N)nc4)c3C2=O)ccc1C(F)(F)F [Co. No. 4] the compound record lists ED50 as 1.26

For C[C@H]1CN(c2ccc(C(F)(F)F)cc2)C(=O)c2c(NC(=O)c3cccnc3)cnn21 [Co. No. 28] the compound record lists ED50 as 0.78

For C[C@H]1CN(c2ccc(C(F)(F)F)c(F)c2)C(=O)c2c(NC(=O)c3ccc(N)nc3)cnn21 [Co. No. 13] the compound record lists ED50 as 0.2

For Cc1cncc(C(=O)Nc2cnn3c2C(=O)N(c2ccc(C(F)(F)F)c(Cl)c2)C[C@@H]3C)c1 [Co. No. 101] the compound record lists ED50 as 0.18

For C[C@H]1CN(c2ccc(C(F)(F)F)c(Cl)c2)C(=O)c2c(NC(=O)c3ccc(N)nc3)cnn21 [Co. No. 1] the compound record lists ED50 as 0.39

For Cc1cc(N2C[C@H](C)n3ncc(NC(=O)c4cccnc4)c3C2=O)ccc1C(F)(F)F [Co. No. 145] the compound record lists ED50 as 0.5

For C[C@H]1CN(c2ccc(C(F)(F)F)cc2)C(=O)c2c(NC(=O)c3ccc(N)nc3)cnn21 [Co. No. 8] the compound record lists ED50 as 0.19

----------
TESTED_TARGET: human mGlu2 receptor (Homo sapiens, UniProt Q14416)
Construct: expressed in transfected cells; host or cells: CHO cells
ASSAY_NAME: [35S]GTPγS binding assay (mGluR2 negative allosteric modulation, glutamate ~EC80 60 μM)
Format: biochemical
REPORTED_CONDITIONS: membranes from CHO cells transfected with human mGlu2 receptor; glutamate ~EC80 (60 μM); pIC50 = −log IC50 (M); read-out: GTPγS-hmGluR2 anGT pIC50 (converted)
MEASURED_PARAMETER: IC50 (M)

Here's what some known entries look like.
COc1ccc(C(=O)Nc2cnn3c2C(=O)N(c2ccc(C(F)(F)F)cc2)C[C@@H]3C)c(F)c1 [Co. No. 44]: 1.12e-08
Cc1cncc(C(=O)Nc2cnn3c2C(=O)N(c2ccc(C(F)(F)F)cc2)C[C@@H]3C)c1 [Co. No. 99]: 3.98e-09
C[C@H]1CN(c2ccc(S(F)(F)(F)(F)F)cc2)C(=O)c2c(NC(=O)c3cccnc3N)cnn21 [Co. No. 202]: 1.15e-09
CNc1ncccc1C(=O)Nc1cnn2c1C(=O)N(c1ccc(C(F)(F)F)cc1)C[C@@H]2C [Co. No. 194]: 1.29e-09
C[C@H]1CN(c2ccc(C(F)(F)F)cc2)C(=O)c2c(NC(=O)c3cnccn3)cnn21 [Co. No. 35]: 8.13e-09

1. C[C@@H]1CN(c2ccc(C(F)(F)F)cc2)C(=O)c2c(NC(=O)c3cccnc3)cnn21 [Co. No. 188]
2. COCc1ccccc1C(=O)Nc1cnn2c1C(=O)N(c1ccc(C(F)(F)F)cc1)C[C@@H]2C [Co. No. 78]
When their IC50 values are compared, which is larger, 1 or 2 ? Give the chosen item's label as your response. 1
(1: 2.45e-07 M, 2: 5.62e-08 M)

----------
TESTED_TARGET: human mGlu2 receptor (Homo sapiens)
Construct: expressed in transfected cells; host or cells: CHO cells
ASSAY_NAME: [35S]GTPγS binding assay (mGluR2 negative allosteric modulation, glutamate ~EC80 60 μM)
Format: biochemical
REPORTED_CONDITIONS: membranes from CHO cells transfected with human mGlu2 receptor; glutamate ~EC80 (60 μM); pIC50 = −log IC50 (M); read-out: GTPγS-hmGluR2 anGT pIC50 (converted)
MEASURED_PARAMETER: IC50 (M)

COc1ccnc(N)c1C(=O)Nc1cnn2c1C(=O)N(c1ccc(C(F)(F)F)cc1)C[C@@H]2C (racemic): 2.88e-09

I. C[C@H]1CN(c2ccc(C(F)(F)F)c(Cl)c2)C(=O)c2c(NC(=O)c3ccc(N)nc3)cnn21
II. COc1cccc(F)c1C(=O)Nc1cnn2c1C(=O)N(c1ccc(C(F)(F)F)cc1)C[C@@H]2C
Would you mind telling me which has the lower recorded IC50 between I and II ? Give the chosen item's label as your response. I

a. C[C@H]1CN(c2ccc(C(F)(F)F)c(CF)c2)C(=O)c2c(NC(=O)c3ccc(N)nc3)cnn21
b. Cc1cc(C(=O)Nc2cnn3c2C(=O)N(c2ccc(Cl)cc2)C[C@@H]3C)cc(C)n1
When their IC50 values are compared, which is larger, a or b ? Give the chosen item's label as your response. b
(b: 8.71e-09 M, a: 2.4e-09 M)

A. C[C@H]1CN(c2ccc(Cl)cc2)C(=O)c2c(NC(=O)c3ccc(N)nc3)cnn21
B. Cc1cc(C(=O)Nc2cnn3c2C(=O)N(c2ccc(C(F)(F)F)cc2)C[C@@H]3C)cnc1N (racemic)
C. COc1cc(N2C[C@H](C)n3ncc(NC(=O)c4cc(C)nc(C)c4)c3C2=O)ccc1C(F)(F)F
D. C[C@H]1CN(c2ccc(C(F)(F)F)cc2)C(=O)c2c(NC(=O)CC3CC3)cnn21
E. C[C@H]1CN(c2ccc(C(F)(F)F)cc2)C(=O)c2c(NC(=O)c3c[nH]c(N)n3)cnn21
Arrange the 5 entries by IC50 so the values rise. Answer by writing out the labels in the requested order. B, C, A, D, E

I. COc1cncc(C(=O)Nc2cnn3c2C(=O)N(c2ccc(C(F)(F)F)c(OC)c2)C[C@@H]3C)c1
II. C[C@H]1CN(c2ccc(C(F)(F)F)cc2)C(=O)c2c(NC(=O)c3cnc(N)s3)cnn21
III. C[C@H]1CN(c2ccc(Cl)c(Cl)c2)C(=O)c2c(NC(=O)c3ccc(N)nc3)cnn21
IV. C[C@H]1CN(c2ccc(C(F)(F)F)cc2)C(=O)c2c(NC(=O)c3ncccn3)cnn21
Rank by IC50 (largest to smallest). Answer by writing out the labels in the requested order. IV, II, I, III

a. COc1cc(C(=O)Nc2cnn3c2C(=O)N(c2ccc(C(F)(F)F)cc2)C[C@@H]3C)ccn1
b. C[C@H]1CN(c2ccc(C(F)(F)F)cc2)C(=O)c2c(NC(=O)c3cncn3C)cnn21
c. COc1nc(N2C[C@H](C)n3ncc(NC(=O)c4ccccc4)c3C2=O)ccc1C(F)(F)F
Arrange the 3 entries by IC50 so the values rise. Answer by writing out the labels in the requested order. a, c, b
(a: 1.29e-08 M, c: 3.8e-08 M, b: 3.47e-07 M)

a. COc1cncc(C(=O)Nc2cnn3c2C(=O)N(c2ccc(C(F)(F)F)cc2)C[C@@H]3C)c1C
b. COc1cncc(C(=O)Nc2cnn3c2C(=O)N(c2ccc(C(F)(F)F)c(C)c2)C[C@@H]3C)c1
c. Cc1cc(C(=O)Nc2cnn3c2C(=O)N(c2ccc(C(F)(F)F)cc2)C[C@@H]3C)c(C)cn1
d. Cc1cncc(C(=O)Nc2cnn3c2C(=O)N(c2ccc(C(F)(F)F)c(Cl)c2)C[C@@H]3C)c1
e. COCC1CN(c2ccc(C(F)(F)F)cc2)C(=O)c2c(NC(=O)c3ccc(N)nc3)cnn21 (single isomer, unassigned) [Co. No. 96]
Rank by IC50 (largest to smallest). Answer by writing out the labels in the requested order. e, a, c, b, d
(e: 1.45e-06 M, a: 1.91e-07 M, c: 1.86e-08 M, b: 3.16e-09 M, d: 1.12e-09 M)

I. O=C(Nc1cnn2c1C(=O)N(c1ccc(C(F)(F)F)cc1)CC2)c1cccnc1
II. COc1cc(N2C[C@H](C)n3ncc(NC(=O)c4cnccn4)c3C2=O)ccc1C(F)(F)F
Would you mind telling me which has the lower recorded IC50 between I and II ? Give the chosen item's label as your response. II
(II: 4.27e-09 M, I: 1.07e-06 M)

I. C[C@H]1CN(c2ccc(C(F)(F)F)c(F)c2)C(=O)c2c(NC(=O)c3cncc(F)c3)cnn21
II. Cc1cncc(C(=O)Nc2cnn3c2C(=O)N(c2ccc(Cl)cc2)C[C@@H]3C)c1
III. C[C@H]1CN(c2ccc(Cl)c(OC(F)F)c2)C(=O)c2c(NC(=O)c3ccc(N)nc3)cnn21
Arrange the 3 entries by IC50 so the values rise. Answer by writing out the labels in the requested order. III, I, II
(III: 4.27e-09 M, I: 9.55e-09 M, II: 1.66e-08 M)
